observation_type: melting point

Fill in: melting point of COCC(=O)COc1c([N+](=O)[O-])ccc(F)c1F is ___ 39 to 42 °C

Fill in: melting point of Cc1c(C(=O)O)nc2c(=O)[nH]c3cc(C(F)(F)F)c(-n4cccc4)cc3n12 is ___ 265 to 270 °C

Fill in: melting point of CCCCc1ncc(/C=C(\Cc2cc(OC)cs2)C(=O)O)n1Cc1ccccc1Cl is ___ 170 to 171 °C

Fill in: melting point of NC(=O)N(O)CCNC(=O)c1cccc(Oc2cc(Cl)cc(Cl)c2)c1 is ___ 164 to 166 °C

Fill in: melting point of Cc1cc(C=C2CCCC(=Cc3cc(C)c(O)c(C)c3)C2=O)cc(C)c1O is ___ 225 to 226 °C

Reference source: a melting point compilation (Tetko et al.; mined from patent text by program, amines drawn as free bases though some values may be those of a salt)
